# system: T1, human IL-23R endogenously expressed on DB cells (human, UniProt Q5VWK5 24-629)
# T1 sequence (looked up): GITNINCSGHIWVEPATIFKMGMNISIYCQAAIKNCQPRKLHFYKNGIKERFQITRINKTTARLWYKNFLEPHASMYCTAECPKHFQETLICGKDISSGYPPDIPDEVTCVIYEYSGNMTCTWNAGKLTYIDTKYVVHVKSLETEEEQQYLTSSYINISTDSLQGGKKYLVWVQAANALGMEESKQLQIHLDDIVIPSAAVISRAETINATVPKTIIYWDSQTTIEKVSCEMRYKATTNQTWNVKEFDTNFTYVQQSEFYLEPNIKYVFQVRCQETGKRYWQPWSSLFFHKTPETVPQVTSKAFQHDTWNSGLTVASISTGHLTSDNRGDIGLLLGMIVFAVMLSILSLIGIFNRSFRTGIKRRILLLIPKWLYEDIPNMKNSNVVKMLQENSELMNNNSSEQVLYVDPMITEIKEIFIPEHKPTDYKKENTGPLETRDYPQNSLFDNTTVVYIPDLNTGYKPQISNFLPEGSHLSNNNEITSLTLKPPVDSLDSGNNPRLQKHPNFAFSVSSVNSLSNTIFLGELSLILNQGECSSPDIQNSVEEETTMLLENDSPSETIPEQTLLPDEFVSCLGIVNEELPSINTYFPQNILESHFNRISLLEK
# assayName: cell-based or functional assay
*1 amine or outer side, *2 acyl side, *3 side chain or, on linkers, in order; H or OH if unused. Bridges are numbered along the chain shown (N, C = ends). [ ]: non-standard residue; d: D form. 4‑Aminomethyl‑phenylacetyl = 4-aminomethyl-phenylacetyl unit, its amine closes the lactam, O=C(Cc1ccc(CN[*:1])cc1)[*:2]; 2Nal = N[C@@H](Cc1ccc2ccccc2c1)C(=O)O; AEF = NCCOc1ccc(C[C@H](N)C(=O)O)cc1; 3Pal = N[C@@H](Cc1cccnc1)C(=O)O; αMeL = CC(C)C[C@](C)(N)C(=O)O; β3hL = CC(C)C[C@H](N)CC(=O)O; 3Amb = NCc1cccc(C(=O)O)c1; Dab = NCC[C@H](N)C(=O)O
Attribute: hIL-23 (pSTAT3) antagonist IC50
measuredProperty: hIL-23 (pSTAT3) antagonist IC50

>>> result("[4‑Aminomethyl‑phenylacetyl]FEWQ[Dab][AEF][2Nal][αMeL]E[Dab][3Pal]-NHMe (lactam N-10, 3-6; SMILES CNC(=O)[C@H](Cc1cccnc1)NC(=O)[C@H](CCN)NC(=O)[C@@H]1CCC(=O)NCc2ccc(cc2)CC(=O)N[C@@H](Cc2ccccc2)C(=O)N[C@H]2CCC(=O)NCC[C@H](NC(=O)[C@H](CCC(N)=O)NC(=O)[C@H](Cc3c[nH]c4ccccc34)NC2=O)C(=O)N[C@@H](Cc2ccc(OCCN)cc2)C(=O)N[C@@H](Cc2ccc3ccccc3c2)C(=O)N[C@@](C)(CC(C)C)C(=O)N1) [Compound 21]")
"63 pM"
>>> result("[4‑Aminomethyl‑phenylacetyl]SCWQC[AEF][2Nal][αMeL]E[Dab][3Pal]-NH2 (lactam N-10; bridge 3-6; not fully specified (bridges); printed as [4-Aminomethyl-phenylacetyl](1c)*SC(2a)WQC(2a)[Y(2-aminoethoxy)][2-Nal][2-Me-Leu]E(1c)[Dab][3-(3-Pyridyl)-Ala]-[NH2]) [Ref 120]")
"54 pM"
>>> result("[4‑Aminomethyl‑phenylacetyl]SEWQ[Dab][AEF][2Nal][αMeL]E[Dab][3Pal][β3hL]-NH2 (lactam N-10, 3-6; SMILES CC(C)C[C@@H](CC(N)=O)NC(=O)[C@H](Cc1cccnc1)NC(=O)[C@H](CCN)NC(=O)[C@@H]1CCC(=O)NCc2ccc(cc2)CC(=O)N[C@@H](CO)C(=O)N[C@H]2CCC(=O)NCC[C@H](NC(=O)[C@H](CCC(N)=O)NC(=O)[C@H](Cc3c[nH]c4ccccc34)NC2=O)C(=O)N[C@@H](Cc2ccc(OCCN)cc2)C(=O)N[C@@H](Cc2ccc3ccccc3c2)C(=O)N[C@@](C)(CC(C)C)C(=O)N1) [Compound 11]")
"0.68 nM"
>>> result("[4‑Aminomethyl‑phenylacetyl]SEWQ[Dab][AEF][2Nal][αMeL]E[Dab][3Pal][dH]-NH2 (lactam N-10, 3-6; SMILES CC(C)C[C@]1(C)NC(=O)[C@H](Cc2ccc3ccccc3c2)NC(=O)[C@H](Cc2ccc(OCCN)cc2)NC(=O)[C@@H]2CCNC(=O)CC[C@H](NC(=O)[C@H](CO)NC(=O)Cc3ccc(cc3)CNC(=O)CC[C@@H](C(=O)N[C@@H](CCN)C(=O)N[C@@H](Cc3cccnc3)C(=O)N[C@H](Cc3c[nH]cn3)C(N)=O)NC1=O)C(=O)N[C@@H](Cc1c[nH]c3ccccc13)C(=O)N[C@@H](CCC(N)=O)C(=O)N2) [Compound 10]")
"38 pM"
>>> result("[3Amb]SCWQC[AEF][2Nal][αMeL]ER[3Pal]-NH2 (lactam N-10; bridge 3-6; not fully specified (bridges); printed as [(3-Aminomethyl)benzoyl](1c)*SC(2a)WQC(2a)[Y(2-aminoethoxy)][2-Nal][2-Me-Leu]E(1c)R[3-(3-Pyridyl)-Ala]-[NH2]) [Ref 78]")
"0.13 nM"
